This collection of values is drawn from PubChem BioAssay AID1159580.

- Experiment notes: chemical genetic growth profiling, strain panel (AID 1159580);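 note: tested at 20 µM; growth read once vehicle control cultures reached saturation at 30 °C; 1 = growth at the plate median or of vehicle wells; lower values mean less growth of the strain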
- Recorded conditions: S. cerevisiae deletion strains, growth OD, locus YPR167C, strain met16
About 2,000 (36%) of roughly 5,500 compounds were called active. Another 18% or so got no clear call; they are omitted. Cut-off read from the data, not from the text of the source: active = normalized growth mostly below about 0.91 (no sharp cut-off); inconclusive = no clear call, values can overlap the other calls; inactive = mostly above about 0.92. The list shows a part of the results.
# valid calls are 1 = active, -1 = inactive; nothing else

These recorded examples may help you get a feel for the data.
1) OCCN1CCN(CCCN2c3ccccc3Sc3ccc(Cl)cc32)CC1 ... -1
2) CC1(C)S[C@@H]2[C@H](NC(=O)COc3ccccc3)C(=O)N2[C@H]1C(=O)O ... -1
3) O=C1c2ccccc2C(=O)c2c1ccc(O)c2O ... 1

So what was the verdict on `COP(=S)(OC)SCn1nnc2ccccc2c1=O` in this test? -1

###

- Experiment notes: chemical genetic growth profiling, strain panel (AID 1159580)
- Recorded conditions: S. cerevisiae deletion strains, growth OD, locus YJL164C, strain tpk1, active compounds read low
The campaign covered roughly 5,500 compounds. About 2,000 (36%) were called active. Not shown: some 18% with an inconclusive outcome. Some of the results follow.
Measured quantity: normalized growth
Numbers only.

# count of solved cases: 5
1) CCCCC(=O)O[C@H]1CCC2C3CCc4cc(O)ccc4C3CC[C@@]21C (stereo partly drawn) ... 0.987
2) C=C1CC2C(CCC3(C)C(=O)CCC23)C2(C)C=CC(=O)C=C12 (stereo not drawn) ... 0.916
3) Nc1ncnc2nc[nH]c12 ... 0.993
4) COc1cc(OC)c2c(=O)c(-c3ccc4c(c3)OCO4)coc2c1 ... 0.98
5) CC(=O)O[C@H]1CC2CCC3C(CC[C@@]4(C)C3C[C@H]([N+]3(C)CCCCC3)[C@@H]4OC(C)=O)[C@@]2(C)C[C@@H]1[N+]1(C)CCCCC1 (stereo partly drawn) ... 1.01

Each molecule below has a reported value. Please supply its normalized growth.
1. CCCCC(=O)N(Cc1ccc(-c2ccccc2-c2nn[nH]n2)cc1)[C@H](C(=O)O)C(C)C
2. CCS(=O)(=O)CCn1c([N+](=O)[O-])cnc1C
3. CC(C)=CCC/C(C)=C/COc1ccc2ccc(=O)oc2c1
4. CC(C)=CCc1c(O)cc2occ(-c3ccc4c(c3)OCO4)c(=O)c2c1O

1: 0.988; 2: 1; 3: 0.966; 4: 0.943

###

So I've got a bunch of compounds here, and I need their normalized growth values.
- Experiment notes: chemical genetic growth profiling, strain panel (AID 1159580)
- Recorded conditions: S. cerevisiae deletion strains, growth OD, locus YPL106C, strain sse1, active compounds read low
Out of some 5,500 compounds screened, about 2,000 (36%) were called active. Another 18% or so got no clear call; they are omitted. The list shows a part of the results.
One number for each entry.

# count of solved cases: 3
1) Cn1nnnc1SCC1=C(C(=O)O)N2C(=O)C(NC(=O)C(OC=O)c3ccccc3)C2SC1 (stereo not given) ... 1.01
2) CC1(C)S[C@@H]2[C@H](NC(=O)COc3ccccc3)C(=O)N2[C@H]1C(=O)O ... 0.998
3) C[C@]12C=CC(=O)C=C1CCC1C2CC[C@]2(C)C(=O)CCC12 (stereo not given in full) ... 0.958

Each compound below has a reported value. Please supply its normalized growth.
1. N#C/C(=C\c1ccc(O)cc1)C(=O)O
2. O=c1ccc2cc(O[C@@H]3O[C@H](CO)[C@@H](O)[C@H](O)[C@H]3O)c(O)cc2o1
3. COC(=O)C1=CO[C@@H](O[C@@H]2O[C@H](CO)[C@@H](O)[C@H](O)[C@H]2O)[C@@H]2[C@@H](C)[C@@H](O)C[C@H]12

1. 1
2. 0.962
3. 0.948

Each compound below has a reported value. Please supply its normalized growth.
1. CCNc1nc(Cl)nc(NC(C)C)n1
2. O=C(O)c1cc2cc(Cl)ccc2[nH]1
3. CCOC(=O)C1=C(C)NC(C)=C(C(=O)OC)C1c1cccc([N+](=O)[O-])c1 (stereo not given)
4. C=C(C)c1cc2cc(C(C)=O)c(O)cc2o1
5. COc1cc(O)c(C(=O)O)c(O)c1

1. 1.03
2. 0.966
3. 1.04
4. 0.895
5. 0.982

Each compound below has a reported value. Please supply its normalized growth.
1. Cn1c([N+](=O)[O-])cnc1COC(N)=O
2. C[N+]1(C)CCc2cc3c(cc2[C@H]1C1OC(=O)c2c1ccc1c2OCO1)OCO3 (stereo not given in full)
3. CC(C)=CCC/C(C)=C/COc1ccc2ccc(=O)oc2c1
4. COc1cc2ccc(=O)oc2c(OC)c1OC
5. NCCS
6. C[N+]1(C)C2CC[C@H]1CC(OC(=O)C(O)c1ccccc1)C2 (stereo not given in full)
7. CCCC(=O)Nc1ncnc2c1ncn2C1O[C@@H]2COP(=O)(O)O[C@H]2[C@H]1OC(=O)CCC (stereo not given in full)
8. Cn1c(=O)[nH]c(=O)c2[nH]cnc21

1.02
0.999
1.01
0.977
0.957
0.99
0.941
0.958

Fill in the blank: the reported normalized growth of `COc1ccc2ccc(=O)oc2c1CC=C(C)C` is ____. 0.917

###

- Experiment notes: chemical genetic growth profiling, strain panel (AID 1159580)
- Recorded conditions: S. cerevisiae deletion strains, growth OD, locus YPR111W, strain DBF20, active compounds read low
In all, about 5,500 compounds went through this assay and about 2,000 (36%) were called active. Another 18% or so got no clear call; they are omitted. This is one part of the list.
Measured quantity: normalized growth
Answers are plain numbers.

# count of solved cases: 2
1) Oc1ccc(-n2nnnc2SCc2ccc(OC(F)(F)F)cc2)cc1 ... 0.967
2) CSc1sc(-c2ccn[nH]2)c(-c2ccccc2)c1C#N ... 0.954

Now turn to the next compound.
Fill in the blank: the reported normalized growth of `Cc1c(NCN2C(=O)CCC2=O)cc2c(c1[N+](=O)[O-])C(C)(C)CC2(C)C` is ____. 0.943

###

- Experiment notes: chemical genetic growth profiling, strain panel (AID 1159580);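 note: tested at 20 µM; growth read once vehicle control cultures reached saturation at 30 °C; 1 = growth at the plate median or of vehicle wells; lower values mean less growth of the strain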
- Recorded conditions: S. cerevisiae deletion strains, growth OD, locus YMR001C, strain CDC5, active compounds read low
Hit rate of the full screen: of about 5,500 compounds, about 2,000 (36%) were called active. Roughly 18% stayed inconclusive and do not appear here. The list shows a part of the results.
So I've got a bunch of compounds here, and I need their normalized growth values.
Numbers only.

1) CSC(SC)=C(C#N)C(=O)c1ccccc1Cl ... 0.732
2) COc1cccc(C(=O)C(C#N)=C(SC)SC)c1 ... 0.876

Fill in the blank: the reported normalized growth of CCOC(=O)C1C(c2ccc(Br)cc2)C(C(=O)OCC)C(O)(C(F)(F)F)NC1(O)C(F)(F)F (stereo not drawn) is ____. 0.987

###

So I've got a bunch of molecules here, and I need their normalized growth values.
- Experiment notes: chemical genetic growth profiling, strain panel (AID 1159580);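 note: tested at 20 µM; growth read once vehicle control cultures reached saturation at 30 °C; 1 = growth at the plate median or of vehicle wells; lower values mean less growth of the strain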
- Recorded conditions: S. cerevisiae deletion strains, growth OD, locus YNL298W, strain CLA4, active compounds read low
The campaign covered roughly 5,500 compounds. About 2,000 (36%) were called active. Roughly 18% stayed inconclusive and do not appear here. The list shows a part of the results.
Give bare numbers.

1. CCCCC(=O)O[C@H]1CCC2C3CCc4cc(O)ccc4C3CC[C@@]21C (stereo partly drawn) ... 1
2. Cn1c(=O)[nH]c(=O)c2[nH]cnc21 ... 0.972
3. COC(=O)C[C@H]1C(C)(C)C(OC(C)=O)[C@]2(O)C=C3C4CC(=O)O[C@@H](c5ccoc5)[C@]4(C)CCC3[C@@]1(C)C2=O (stereo partly drawn) ... 1
4. COc1c(O)cc(O)cc1O ... 0.998
5. CN1Cc2c(N)cccc2C(c2ccccc2)C1 (stereo not drawn) ... 1.01

Each molecule below has a reported value. Please supply its normalized growth.
1. CCOc1nc2cccc(C(=O)OC(C)OC(=O)OC3CCCCC3)c2n1Cc1ccc(-c2ccccc2-c2nn[nH]n2)cc1 (stereo not drawn)
2. CCC(=O)O[C@H]1CCC2C3CCc4cc(O)ccc4C3CC[C@@]21C (stereo partly drawn)
3. COc1cc(O)c(C(=O)c2ccccc2)c(OC)c1

1. 1
2. 0.999
3. 0.987

###

- Experiment notes: chemical genetic growth profiling, strain panel (AID 1159580);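 note: tested at 20 µM; growth read once vehicle control cultures reached saturation at 30 °C; 1 = growth at the plate median or of vehicle wells; lower values mean less growth of the strain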
- Recorded conditions: S. cerevisiae deletion strains, growth OD, locus YMR263W, strain SAP30, active compounds read low
Among all 5,500 compounds or so, about 2,000 (36%) were called active. Inconclusive results (about 18%) are left out. The list shows a part of the results.
So I've got a bunch of compounds here, and I need their normalized growth values.
Answers are plain numbers.

# count of solved cases: 3
1. COC(=O)c1c(OC)ccc(N=CNO)c1OC ... 0.926
2. CC(C(=O)O)c1ccc(CC2CCCC2=O)cc1 (stereo unspecified) ... 1
3. CCCCN1CCC(n2c(=O)[nH]c3ccccc32)CC1 ... 1

Each compound below has a reported value. Please supply its normalized growth.
1. CC(=O)O[C@@H]1CC2C(C)(C)C(=O)[C@@H]3O[C@@H]3[C@]2(C)C2CC[C@]3(C)C(=CC(=O)O[C@H]3c3ccoc3)[C@@]21C (stereo partly specified)
2. CCCc1nc(C(C)(C)O)c(C(=O)OCc2oc(=O)oc2C)n1Cc1ccc(-c2ccccc2-c2nn[nH]n2)cc1

1.01
1.02
